Tested on: clinical strains of Streptococcus pneumoniae
Assay: MIC, clinical strains of Streptococcus pneumoniae
Format: cell-based
Parameters: unit: µg/mL
Conditions: Streptococcus pneumoniae clinical strain 5; microdilution, Muller Hinton broth-cation adjusted, 0.02% BSA, 0.2% acetic acid
Where a SMILES comes first, the peptide text is derived from it. [ ]: non-standard residue; d: D form.
# Minimum inhibitory concentration listing for each entry below
READOUT TYPE: Minimum inhibitory concentration

CC(C)C[C@@H](NC(=O)[C@H](N)CCCNC(=N)N)C(=O)N[C@H](CCCCN)C(=O)N[C@H](CCCNC(=N)N)C(=O)N[C@H](Cc1c[nH]c2ccccc12)C(=O)N[C@H](CCCNC(=N)N)C(=O)N[C@H](CC(C)C)C(=O)N[C@H](Cc1ccccc1)C(=O)N[C@H](CCCNC(=N)N)C(=O)N[C@H](CCCCN)C(=O)N[C@H](CCCNC(=N)N)C(=O)O [Chain306D] (H-[dR][dL][dK][dR][dW][dR][dL][dF][dR][dK][dR]-OH) ... 64
CC(C)C[C@@H](NC(=O)[C@H](N)CCCNC(=N)N)C(=O)N[C@H](CCCCN)C(=O)N[C@H](Cc1c[nH]c2ccccc12)C(=O)N[C@H](Cc1ccccc1)C(=O)N[C@H](CC(C)C)C(=O)N[C@H](CC(C)C)C(=O)N[C@H](Cc1ccccc1)C(=O)N[C@H](CCCNC(=N)N)C(=O)N[C@H](CCCCN)C(=O)N[C@H](CCCNC(=N)N)C(=O)O [Chain308D] (H-[dR][dL][dK][dW][dF][dL][dL][dF][dR][dK][dR]-OH) ... 4
CC[C@@H](C)[C@@H](NC(=O)[C@@H](CC(C)C)NC(=O)[C@@H](CCCNC(=N)N)NC(=O)[C@H](N)CCCNC(=N)N)C(=O)N[C@H](Cc1c[nH]c2ccccc12)C(=O)N[C@H](CCCNC(=N)N)C(=O)N[C@H](CCCNC(=N)N)C(=O)N[C@H](Cc1ccccc1)C(=O)N[C@H](CCCCN)C(=O)N[C@H](Cc1c[nH]c2ccccc12)C(=O)N[C@H](CC(C)C)C(=O)N[C@H](CCCNC(=N)N)C(=O)O [Chain204D] (H-[dR][dR][dL][dI][dW][dR][dR][dF][dK][dW][dL][dR]-OH) ... 4
CC[C@@H](C)[C@@H](N)C(=O)N[C@H](Cc1c[nH]c2ccccc12)C(=O)N[C@H](CCCCN)C(=O)N[C@H](CCCNC(=N)N)C(=O)N[C@H](Cc1ccccc1)C(=O)N[C@H](CCCNC(=N)N)C(=O)N[C@H](CC(C)C)C(=O)N[C@H](Cc1ccccc1)C(=O)N[C@H](CCCCN)C(=O)N[C@H](CCCCN)C(=O)N[C@H](Cc1c[nH]c2ccccc12)C(=O)O [Chain304D] (H-[dI][dW][dK][dR][dF][dR][dL][dF][dK][dK][dW]-OH) ... 64
CC(C)C[C@@H](NC(=O)[C@H](N)CCCNC(=N)N)C(=O)N[C@H](CCCCN)C(=O)N[C@H](Cc1c[nH]c2ccccc12)C(=O)N[C@H](Cc1ccccc1)C(=O)N[C@H](Cc1c[nH]c2ccccc12)C(=O)N[C@H](CC(C)C)C(=O)N[C@H](Cc1ccccc1)C(=O)N[C@H](CCCNC(=N)N)C(=O)N[C@H](CCCCN)C(=O)N[C@H](CCCNC(=N)N)C(=O)O [Chain307D] (H-[dR][dL][dK][dW][dF][dW][dL][dF][dR][dK][dR]-OH) ... 2
CC[C@@H](C)[C@@H](NC(=O)[C@@H](Cc1c[nH]c2ccccc12)NC(=O)[C@H](N)CCCCN)C(=O)N[C@@H](C(=O)N[C@H](Cc1c[nH]c2ccccc12)C(=O)N[C@H](CCCNC(=N)N)C(=O)N[C@H](Cc1c[nH]c2ccccc12)C(=O)N[C@H](CCCNC(=N)N)C(=O)N[C@H](Cc1ccccc1)C(=O)N[C@H](CCCCN)C(=O)N[C@H](CCCNC(=N)N)C(=O)O)C(C)C [Chain201D] (H-[dK][dW][dI][dV][dW][dR][dW][dR][dF][dK][dR]-OH) ... 4
